B1: Hairpin Ribozyme (parent)
chain: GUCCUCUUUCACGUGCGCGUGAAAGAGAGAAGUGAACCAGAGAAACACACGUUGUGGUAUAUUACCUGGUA

Variants of: B1
Assay Name: self-cleavage, relative activity (ratio to wild type); higher = more cleavage; co-transcriptional
Threshold rule: self-cleavage greater than or equal to 0.2 is 1 (yes); below that, 0 (no).

Record excerpt, results attached:
>>> cat("A45U U58C")
"0 (no)"
>>> cat("U20A U58A")
"1 (yes)"
>>> cat("A36U A59G")
"0 (no)"
>>> cat("C18G C50A")
"1 (yes)"

Q: Entry C46G G68U : is its self-cleavage no less than 0.2?
Result: 0 (no)

Q: Repeat with U7G G69C
Result: 0 (no)

Q: Repeat with C50G G56C
Result: 0 (no)

Q: Repeat with G1U C12A
Result: 0 (no)

Q: Repeat with G15C U33A
Result: 0 (no)

Q: Repeat with C50A A64U
Result: 0 (no)
